System: HepaRG spheroids
Experiment: Combined HCI (HCS) and cellular ATP 3D assay in HepaRG spheroids
Conditions: HepaRG; all endpoints; Cmax max used
RESULT TYPE: HepaRG Cmax max All

Look over these answered cases.
>  <COMPOUND>
Cc1ccc(C(=O)c2cc(O)c(O)c([N+](=O)[O-])c2)cc1 [tolcapone, reference compound]

>  <RESULT TYPE>
HepaRG Cmax max All

>  <REPORTED MEASUREMENT>
+ve

$$$$
>  <COMPOUND>
CCN(CC)CCNC(=O)c1c(C)[nH]c(/C=C2\C(=O)Nc3ccc(F)cc32)c1C

>  <RESULT TYPE>
HepaRG Cmax max All

>  <REPORTED MEASUREMENT>
+ve

$$$$
>  <COMPOUND>
CCOC(=O)c1ncn2c1CN(C)C(=O)c1cc(F)ccc1-2 [flumazenil, reference compound]

>  <RESULT TYPE>
HepaRG Cmax max All

>  <REPORTED MEASUREMENT>
-ve

$$$$
>  <COMPOUND>
N[C@@H]1[C@H]2CN(c3nc4c(cc3F)c(=O)c(C(=O)O)cn4-c3ccc(F)cc3F)C[C@@H]12

>  <RESULT TYPE>
HepaRG Cmax max All

>  <REPORTED MEASUREMENT>
+ve

$$$$
>  <COMPOUND>
O=C(O)Cc1ccccc1Nc1c(Cl)cccc1Cl

>  <RESULT TYPE>
HepaRG Cmax max All

>  <REPORTED MEASUREMENT>
+ve

$$$$

Your task in this section: give HepaRG Cmax max All for each listed record.
1. CC(=O)Nc1ccc(O)cc1
2. CN(C)CCCN1c2ccccc2Sc2ccc(Cl)cc21 [chlorpromazine, reference compound]
3. CCN(CC)CC#CCOC(=O)C(O)(c1ccccc1)C1CCCCC1 (stereo not shown)
4. O=C1CN(/N=C/c2ccc(-c3ccc([N+](=O)[O-])cc3)o2)C(O)=N1
5. CN(C)C(=O)Oc1cccc([N+](C)(C)C)c1

Completion:
1. +ve
2. +ve
3. -ve
4. +ve
5. -ve

Here are 4 compounds. What values of HepaRG Cmax max All were reported for them?
1. COc1ccc2c(c1)c(CC(=O)O)c(C)n2C(=O)c1ccc(Cl)cc1
2. CN(Cc1cnc2nc(N)nc(N)c2n1)c1ccc(C(=O)N[C@@H](CCC(=O)O)C(=O)O)cc1 [methotrexate, reference compound]
3. C#CCN(C)Cc1ccccc1
4. CC[C@H]1OC(=O)[C@H](C)[C@@H](O[C@H]2C[C@@](C)(OC)[C@@H](O)[C@H](C)O2)[C@H](C)[C@@H](O[C@@H]2O[C@H](C)C[C@H](N(C)C)[C@H]2O)[C@](C)(O)C[C@@H](C)C(=O)[C@H](C)[C@@H](O)[C@]1(C)O

Completion:
["+ve", "+ve", "-ve", "+ve"]

Each of the following entries comes with a recorded value; kindly state HepaRG Cmax max All for each.
1. O=c1[nH]c(=O)n([C@@H]2O[C@H](CO)[C@@H](O)[C@@H]2F)cc1I
2. CCCC(CCC)C(=O)O

Completion:
1. +ve
2. +ve
